# TARGET_OR_TEST_SYSTEM: GABA A receptor α5β3γ2 (Homo sapiens, UniProt P18507+P31644)
# Construct: expressed in transfected cells; host or cells: HEK293 (transiently transfected for the human receptors)
# TEST: [3H]flumazenil competition binding, human GABA A α5β3γ2 receptors expressed in HEK293 cells
# RUN_CONDITIONS: Table 1; human α5, [3H]flumazenil, mean of two determinations; read-out: Ki h
QUANTITY_MEASURED: Ki (nM)

A = Cc1onc(-c2ccc(F)cc2)c1C(=O)c1c[nH]c2cc(C(=O)NCCO)ccc12
B = Cc1onc(-c2ccc(F)cc2)c1C(=O)c1c[nH]c2cc(C(=O)NC3CC3)ccc12
C = Cc1onc(-c2ccccc2)c1C(=O)c1c[nH]c2cc(C(=O)NC3CCCC3)ccc12
D = C#CCN(C)C(=O)c1ccc2c(C(=O)c3c(-c4ccc(F)cc4)noc3C)c[nH]c2c1
Query :: Arrange these 4 compounds in increasing order of Ki. Answer with the labels in sequence, matching the requested order.
Result :: A, B, C, D

Data credit: patent US7378435B2
